- Experimental system: P-gp (human MDR1) (Homo sapiens, UniProt P08183)
- Sequence (P08183 whole entry): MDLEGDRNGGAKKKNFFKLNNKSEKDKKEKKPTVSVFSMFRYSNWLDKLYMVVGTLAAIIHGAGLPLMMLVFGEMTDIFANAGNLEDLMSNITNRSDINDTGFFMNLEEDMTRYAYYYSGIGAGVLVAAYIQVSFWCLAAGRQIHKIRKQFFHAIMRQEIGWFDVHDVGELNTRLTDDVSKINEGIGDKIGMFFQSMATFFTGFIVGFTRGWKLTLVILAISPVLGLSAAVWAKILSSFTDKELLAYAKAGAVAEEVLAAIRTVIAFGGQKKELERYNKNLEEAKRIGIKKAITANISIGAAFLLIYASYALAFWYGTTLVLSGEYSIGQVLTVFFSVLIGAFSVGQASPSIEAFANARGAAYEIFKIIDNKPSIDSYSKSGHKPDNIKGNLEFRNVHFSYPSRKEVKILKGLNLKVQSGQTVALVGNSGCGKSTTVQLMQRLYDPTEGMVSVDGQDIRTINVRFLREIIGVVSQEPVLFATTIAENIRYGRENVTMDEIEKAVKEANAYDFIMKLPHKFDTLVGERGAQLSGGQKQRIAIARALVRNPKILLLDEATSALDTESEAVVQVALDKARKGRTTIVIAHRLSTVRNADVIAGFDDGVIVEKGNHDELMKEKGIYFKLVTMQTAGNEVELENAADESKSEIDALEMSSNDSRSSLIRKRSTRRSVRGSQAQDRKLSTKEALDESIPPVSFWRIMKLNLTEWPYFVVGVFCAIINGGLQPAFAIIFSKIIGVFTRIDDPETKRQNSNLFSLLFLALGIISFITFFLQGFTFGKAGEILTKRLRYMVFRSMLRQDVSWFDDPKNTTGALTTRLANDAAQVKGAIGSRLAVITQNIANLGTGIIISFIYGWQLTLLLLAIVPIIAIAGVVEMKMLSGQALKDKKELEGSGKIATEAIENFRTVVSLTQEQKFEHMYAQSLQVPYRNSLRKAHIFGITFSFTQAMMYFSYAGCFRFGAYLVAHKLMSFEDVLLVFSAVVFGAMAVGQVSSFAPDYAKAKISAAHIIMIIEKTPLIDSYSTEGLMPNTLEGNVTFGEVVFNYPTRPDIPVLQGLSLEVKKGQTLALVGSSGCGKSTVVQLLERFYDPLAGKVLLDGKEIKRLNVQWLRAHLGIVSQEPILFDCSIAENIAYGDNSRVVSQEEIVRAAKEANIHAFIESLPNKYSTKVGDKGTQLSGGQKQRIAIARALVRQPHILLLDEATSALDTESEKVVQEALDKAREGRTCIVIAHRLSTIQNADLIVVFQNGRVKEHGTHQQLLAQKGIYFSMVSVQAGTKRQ
- Procedure details: In vitro P-gp inhibition: 3H-digoxin permeation across control and MDR1-expressing LLC-PK1 cell monolayers
Assay endpoint: Ki

Compound: CNC(=O)c1ccc(N2C(=S)N(c3ccc(C#N)c(C(F)(F)F)c3)C(=O)C2(C)C)cc1F [Enzalutamide]
Result: 1670 nM

---

- Procedure details: clinical
- Recorded conditions: human, plasma, po, 160 mg, Cmax, observed, once-daily oral 160 mg enzalutamide for 49 days; mean

Compound: CNC(=O)c1ccc(N2C(=S)N(c3ccc(C#N)c(C(F)(F)F)c3)C(=O)C2(C)C)cc1F [Enzalutamide]
Result unit: ng/mL
Cmax: 16600

---

- Experimental system: CYP3A4 (Homo sapiens)
- Sequence (P08684 whole entry): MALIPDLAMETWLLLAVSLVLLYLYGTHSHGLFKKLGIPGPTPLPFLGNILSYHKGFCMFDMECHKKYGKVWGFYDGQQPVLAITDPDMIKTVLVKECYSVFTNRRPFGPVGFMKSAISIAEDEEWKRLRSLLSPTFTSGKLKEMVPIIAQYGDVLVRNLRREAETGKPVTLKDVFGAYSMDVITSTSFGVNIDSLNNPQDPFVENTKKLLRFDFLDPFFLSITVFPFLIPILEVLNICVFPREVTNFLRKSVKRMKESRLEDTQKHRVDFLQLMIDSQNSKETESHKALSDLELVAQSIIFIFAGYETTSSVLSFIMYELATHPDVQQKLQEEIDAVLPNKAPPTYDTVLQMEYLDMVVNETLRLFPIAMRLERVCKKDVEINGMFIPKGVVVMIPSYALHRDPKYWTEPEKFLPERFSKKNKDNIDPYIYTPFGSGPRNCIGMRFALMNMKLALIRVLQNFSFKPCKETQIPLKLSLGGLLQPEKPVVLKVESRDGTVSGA
pKi: −log10 of the molar value.

Compound: CNC(=O)c1ccc(N2C(=S)N(c3ccc(C#N)c(C(F)(F)F)c3)C(=O)C2(C)C)cc1F [Enzalutamide]
pKi: 4.38

---

- Procedure details: clinical
- Recorded conditions: human, plasma, po, 160 mg

Compound: CNC(=O)c1ccc(N2C(=S)N(c3ccc(C#N)c(C(F)(F)F)c3)C(=O)C2(C)C)cc1F [Enzalutamide]
AUC: 322 µg·h/mL

---

- Procedure details: clinical
- Recorded conditions: human, plasma, po, 160 mg
Assay endpoint: AUC(0-inf) (µg·h/mL)

Compound: CNC(=O)c1ccc(N2C(=S)N(c3ccc(C#N)c(C(F)(F)F)c3)C(=O)C2(C)C)cc1F [Enzalutamide]
Assay endpoint: AUC(0-inf)
Result unit: µg·h/mL
Numeric result: 288

---

- Experimental system: CYP3A5 (Homo sapiens)
- Sequence (P20815 whole entry): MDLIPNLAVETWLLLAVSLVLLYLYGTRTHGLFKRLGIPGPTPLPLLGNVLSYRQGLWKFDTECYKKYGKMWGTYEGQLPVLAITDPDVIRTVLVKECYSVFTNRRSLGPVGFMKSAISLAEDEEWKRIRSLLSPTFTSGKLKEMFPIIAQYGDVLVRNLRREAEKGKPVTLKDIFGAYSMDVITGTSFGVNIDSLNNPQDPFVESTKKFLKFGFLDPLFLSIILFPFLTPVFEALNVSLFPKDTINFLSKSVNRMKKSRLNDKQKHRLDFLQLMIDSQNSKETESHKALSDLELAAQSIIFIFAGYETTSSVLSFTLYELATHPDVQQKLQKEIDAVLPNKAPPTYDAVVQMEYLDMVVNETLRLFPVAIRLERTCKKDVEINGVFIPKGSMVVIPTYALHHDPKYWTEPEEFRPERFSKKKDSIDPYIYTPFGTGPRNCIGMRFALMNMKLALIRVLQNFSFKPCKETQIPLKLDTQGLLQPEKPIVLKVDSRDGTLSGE
Assay endpoint: Ki (µM)

Molecule: CNC(=O)c1ccc(N2C(=S)N(c3ccc(C#N)c(C(F)(F)F)c3)C(=O)C2(C)C)cc1F [Enzalutamide]
Assay endpoint: Ki
Result unit: µM
Numeric result: 42

---

- Experimental system: UniProtKB P08183
- Procedure details: In vitro P-gp inhibition: 3H-digoxin permeation across control and MDR1-expressing LLC-PK1 cell monolayers
- Recorded conditions: read-out: IC50 (P-gp-mediated 3H-digoxin transport); 3H-digoxin 1 µmol/L; MDR1-expressing LLC-PK1 cells

Molecule: CC1(C)C(=O)N(c2ccc(C#N)c(C(F)(F)F)c2)C(=S)N1c1ccc(C(N)=O)c(F)c1 [M2, N-desmethyl enzalutamide]
IC50: 1.09 µM

---

- Procedure details: clinical
- Recorded conditions: human, plasma, po, 160 mg

Compound: CNC(=O)c1ccc(N2C(=S)N(c3ccc(C#N)c(C(F)(F)F)c3)C(=O)C2(C)C)cc1F [Enzalutamide]
half-life, h: 77.7

---

- Procedure details: clinical
- Recorded conditions: human, plasma, po, 160 mg

Molecule: CNC(=O)c1ccc(N2C(=S)N(c3ccc(C#N)c(C(F)(F)F)c3)C(=O)C2(C)C)cc1F [Enzalutamide]
Tmax: 45 min

---

- Procedure details: Caco-2 passive permeability
- Format: in vitro ADME
- Recorded conditions: human, Caco-2, pH 6.5; internal data; read-out: Papp Caco-2 passive permeability (pH6.5:7.5)

Compound: CNC(=O)c1ccc(N2C(=S)N(c3ccc(C#N)c(C(F)(F)F)c3)C(=O)C2(C)C)cc1F [Enzalutamide]
Papp [×10⁻⁶ cm/s]: 31
